# MIC values compiled below
# System: Klebsiella pneumoniae
# assay details: Antibacterial activity against extended-spectrum beta-lactamase deficient Klebsiella pneumoniae 12-4 after 18 hrs by CLSI broth microdilution method
# Type: functional
# recorded conditions: 12-4, 18 h

A selection of reference data follows.
smiles string: CN(C)C(=N)c1ccc2cc(-c3ccc4ccc(-c5cc6ccc(C(=N)N(C)C)cc6[nH]5)cc4c3)[nH]c2c1
result: > 128 µg/mL
//
smiles string: COCCNC(=N)c1ccc2cc(-c3cncc(-c4cc5ccc(C(=N)NCCOC)cc5[nH]4)c3)[nH]c2c1
result: > 64 µg/mL

Consider now this further compound.
Please report the recorded MIC for N=C(c1ccc2cc(-c3ccc(-c4cc5ccc(C(=N)N6CCC6)cc5[nH]4)cc3)[nH]c2c1)N1CCC1 .
8 µg/mL

###

# Test system: Pseudomonas aeruginosa
# assay details: Antibacterial activity against Pseudomonas aeruginosa ATCC 27853 after 18 hrs by CLSI broth microdilution method
# Assay type: functional
# recorded conditions: ATCC 27853, 18 h
readout label: MIC (µg/mL)
Number in µg/mL, nothing else.

Please report the recorded MIC for CN(C)CCCNC(=N)c1ccc2cc(-c3ccc(-c4cc5ccc(C(=N)NCCCN(C)C)cc5[nH]4)cc3)[nH]c2c1 .
8

Please report the recorded MIC for CC(C)NC(=N)c1ccc2cc(-c3ccc(-c4cc5ccc(C(=N)NC(C)C)cc5[nH]4)cc3)[nH]c2c1 .
2

Please report the recorded MIC for CCNC(=N)c1ccc2cc(-c3ccc(-c4cc5ccc(C(=N)NCC)cc5[nH]4)cc3)[nH]c2c1 .
8

Please report the recorded MIC for CN(C)C(=N)c1ccc2cc(-c3ccc(-c4cc5ccc(C(=N)N(C)C)cc5[nH]4)cc3)[nH]c2c1 .
4

Please report the recorded MIC for CCN(C)C(=N)c1ccc2cc(-c3ccc(-c4cc5ccc(C(=N)N(C)CC)cc5[nH]4)cc3)[nH]c2c1 .
8

###

# MIC values compiled below
# System: Staphylococcus epidermidis
# assay details: Antibacterial activity against methicillin-sensitive Staphylococcus epidermidis 12-6 after 18 hrs by CLSI broth microdilution method
# Type: functional
# recorded conditions: 12-6, 18 h
Mention the unit after the number when you answer.

smiles string: N=C(c1ccc2cc(-c3ccc(-c4cc5ccc(C(=N)N6CCC6)cc5[nH]4)cc3)[nH]c2c1)N1CCC1
target under test: Staphylococcus epidermidis
MIC: 0.125 µg/mL

Please report the recorded MIC for CN1CCC2(CC1)CCN(C(=N)c1ccc3cc(-c4ccc(-c5cc6ccc(C(=N)N7CCC8(CCN(C)CC8)C7)cc6[nH]5)cc4)[nH]c3c1)C2 .
8 µg/mL

Please report the recorded MIC for CC(C)NC(=N)c1ccc2cc(-c3ccc(-c4cc5ccc(C(=N)NC(C)C)cc5[nH]4)cc3)[nH]c2c1 .
0.125 µg/mL

Please report the recorded MIC for N=C(c1ccc2cc(-c3ccc(-c4cc5ccc(C(=N)N6CC=CCC6)cc5[nH]4)cc3)[nH]c2c1)N1CC=CCC1 .
4 µg/mL

Please report the recorded MIC for CN(C)C(=N)c1ccc2cc(-c3ccc4ccc(-c5cc6ccc(C(=N)N(C)C)cc6[nH]5)cc4c3)[nH]c2c1 .
64 µg/mL

###

# Tested on: Klebsiella pneumoniae
# assay details: Antibacterial activity against extended-spectrum beta-lactamase deficient Klebsiella pneumoniae 12-4 after 18 hrs by CLSI broth microdilution method
# Type: functional
# recorded conditions: 12-4, 18 h
readout label: MIC

smiles string: CN(C)C(=N)c1ccc2cc(-c3cccc(-c4cc5ccc(C(=N)N(C)C)cc5[nH]4)c3)[nH]c2c1
target under test: Klebsiella pneumoniae
result: > 128 µg/mL
--
smiles string: CC(C)NC(=N)c1ccc2cc(-c3cncc(-c4cc5ccc(C(=N)NC(C)C)cc5[nH]4)c3)[nH]c2c1
target under test: Klebsiella pneumoniae
result: > 64 µg/mL

Request: MIC, test system Klebsiella pneumoniae, entry CN(C)C(=N)c1ccc2cc(-c3ccc4cc(-c5cc6ccc(C(=N)N(C)C)cc6[nH]5)ccc4c3)[nH]c2c1
> 128 µg/mL

Request: MIC, test system Klebsiella pneumoniae, entry CNC(=N)c1ccc2cc(-c3cncc(-c4cc5ccc(C(=N)NC)cc5[nH]4)c3)[nH]c2c1
> 64 µg/mL
